Target: CCR-3 receptor (Homo sapiens, UniProt P51677)
Sequence (P51677 1-355): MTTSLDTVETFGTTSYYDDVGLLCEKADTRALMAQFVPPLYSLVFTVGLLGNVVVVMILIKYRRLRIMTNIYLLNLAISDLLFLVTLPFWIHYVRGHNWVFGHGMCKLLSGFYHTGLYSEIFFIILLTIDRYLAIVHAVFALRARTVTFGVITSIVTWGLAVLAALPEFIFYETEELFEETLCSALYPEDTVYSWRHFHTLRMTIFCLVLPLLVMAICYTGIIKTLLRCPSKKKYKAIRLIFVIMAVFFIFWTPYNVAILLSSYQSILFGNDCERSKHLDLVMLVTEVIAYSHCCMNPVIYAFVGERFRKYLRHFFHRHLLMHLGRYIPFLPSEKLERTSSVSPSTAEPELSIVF
Counter-ions that a name gives are not always drawn.
So I've got a bunch of compounds here, and I need their IC50 values.
Give bare numbers, in µM.

As a guide, the following entries are already answered.
input: Need IC50, item COc1cc(NC(=O)N[C@@H]2COC[C@H]2N2CCN(Cc3ccc(Cl)cc3)CC2)cc(OC)c1OC (racemic) [compound 7, dihydrochloride]
output: 0.11

input: Given the compound `O=C(Cc1cccs1)Nc1ccccc1N1CCN(Cc2ccc(Cl)c(Cl)c2)CC1` , what is its reported IC50?
output: 200

Now look at this entry.
input: Any idea what its IC50 is? The compound is Cc1ccc(C(=O)NC2CCCCC2N2CCN(Cc3ccc(Cl)c(Cl)c3)CC2)cc1 (stereo not drawn)
output: 12.8
